Where do the numbers come from? From ChEMBL document CHEMBL3988442.

- ASSAY_SYSTEM: Histidine--tRNA ligase (Leishmania infantum) (UniProt A4I591)
- Sequence (whole entry): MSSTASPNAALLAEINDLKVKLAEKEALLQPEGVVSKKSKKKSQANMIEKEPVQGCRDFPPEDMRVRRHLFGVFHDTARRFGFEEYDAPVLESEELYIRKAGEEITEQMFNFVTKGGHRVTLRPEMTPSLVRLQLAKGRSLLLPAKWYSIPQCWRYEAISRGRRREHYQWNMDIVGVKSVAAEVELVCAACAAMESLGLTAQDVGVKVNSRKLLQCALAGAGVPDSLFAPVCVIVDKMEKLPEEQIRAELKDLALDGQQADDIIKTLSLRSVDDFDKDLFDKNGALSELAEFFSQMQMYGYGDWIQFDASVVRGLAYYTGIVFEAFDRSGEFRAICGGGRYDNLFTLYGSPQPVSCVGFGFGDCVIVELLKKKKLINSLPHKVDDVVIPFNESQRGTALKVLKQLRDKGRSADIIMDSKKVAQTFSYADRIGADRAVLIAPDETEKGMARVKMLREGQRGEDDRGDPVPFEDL
- METHOD_SUMMARY: Leishmania infantum Histidine tRNA synthetase (LdHisRS)
- Format: functional
- Set-up: scale not given: in the data most compounds retested in dose-response had high values
- CONDITION_NOTES: 30 µM
Among all 69,000 compounds or so, about 420 (0.61%) showed an effect of 50% or more. This is one part of a sample in which strong results are shown more often than they occur.
Listed below: Percent Effect values for each entry.
The reply should contain only the number, in %.

Below, 10 molecules whose answers are already recorded.
CCn1cc(CNc2ccc(Br)c(OC)c2)cn1 16.9
Cn1ccc(NC(=O)Cc2cccc(F)c2)n1 15.4
CC1CCN(S(=O)(=O)c2cccn(CC(=O)N3CCOCC3)c2=O)CC1 -7.77
CS(=O)(=O)CCn1ccc(NC(=O)Cc2cccc(Cl)c2)n1 15.3
COc1cccc(N2CCN(Cc3ccc4occc4c3)CC2=O)c1 13.5
O=C1CC2(CCN(Cc3ccc(C(F)(F)F)nc3)CC2)CN1 15.4
COc1cccn(CC(=O)N2CCCC3(CCOCC3)C2)c1=O 98.9
CN(C)CCN1C(=O)C[C@@H]2[C@@H]1CCN2S(=O)(=O)c1ccccc1 13.6
NCc1ccnc(Oc2ccc(F)cc2)c1 30.1
Cc1ccc(C(F)(F)F)cc1NCC(=O)Nc1c(C)nn(C)c1C 17.8

Incoming: For the record Cc1cc(C)cc(N2CCN(Cc3cccc(CCN)c3)CC2=O)c1 , what value of Percent Effect is listed for Histidine--tRNA ligase (Leishmania infantum) (UniProt A4I591)?
Outgoing: 8.2

Incoming: For the record Cc1nc(CN2C(=O)CC[C@H]3[C@@H]2CCN3C(=O)c2ccsc2)cs1 , what value of Percent Effect is listed for Histidine--tRNA ligase (Leishmania infantum) (UniProt A4I591)?
Outgoing: 16.5

Incoming: For the record CN(C)C(=O)CO[C@H]1CN(Cc2nccs2)[C@@H]2COC[C@H]12 , what value of Percent Effect is listed for Histidine--tRNA ligase (Leishmania infantum) (UniProt A4I591)?
Outgoing: 9.91

Incoming: For the record COc1cccc(N2CCN(Cc3cccc(CCN)c3)CC2=O)c1 , what value of Percent Effect is listed for Histidine--tRNA ligase (Leishmania infantum) (UniProt A4I591)?
Outgoing: 60.7

Incoming: For the record CN(C)C(=O)N1C[C@@H]2CCCO[C@@H]2[C@H](N(C)Cc2ccco2)C1 , what value of Percent Effect is listed for Histidine--tRNA ligase (Leishmania infantum) (UniProt A4I591)?
Outgoing: 11.4

Incoming: For the record Cc1cc(=O)n(C)cc1NC(=O)Cc1cccc(Cl)c1 , what value of Percent Effect is listed for Histidine--tRNA ligase (Leishmania infantum) (UniProt A4I591)?
Outgoing: 107

Incoming: For the record CCS(=O)(=O)N1CCO[C@H]2[C@H](OCC3CCCC3)CC[C@@H]21 , what value of Percent Effect is listed for Histidine--tRNA ligase (Leishmania infantum) (UniProt A4I591)?
Outgoing: 20.8

Incoming: For the record NCCc1cccc(CN2CCN(c3cccc(Cl)c3)C(=O)C2)c1 , what value of Percent Effect is listed for Histidine--tRNA ligase (Leishmania infantum) (UniProt A4I591)?
Outgoing: 14.8

Incoming: For the record CCc1cc(N[C@@H]2C[C@H]3CC[C@@H]2C3)n2nccc2n1 , what value of Percent Effect is listed for Histidine--tRNA ligase (Leishmania infantum) (UniProt A4I591)?
Outgoing: 25.7

Incoming: For the record Cc1cc(C(=O)N2C[C@H]3CC[C@@H]2CN(Cc2ccccn2)C3)nc(N)n1 , what value of Percent Effect is listed for Histidine--tRNA ligase (Leishmania infantum) (UniProt A4I591)?
Outgoing: -4.84

Incoming: For the record COc1ccccc1CC(=O)N1CC[C@H](O)[C@]2(CCCO2)C1 , what value of Percent Effect is listed for Histidine--tRNA ligase (Leishmania infantum) (UniProt A4I591)?
Outgoing: 18.8

Incoming: For the record CCn1cc(CNc2ccc3nccnc3c2)cn1 , what value of Percent Effect is listed for Histidine--tRNA ligase (Leishmania infantum) (UniProt A4I591)?
Outgoing: 90.9

Incoming: For the record CCn1cc(CNc2ccc(F)c(F)c2)cn1 , what value of Percent Effect is listed for Histidine--tRNA ligase (Leishmania infantum) (UniProt A4I591)?
Outgoing: 3.54
